Target: Phospholipid hydroperoxide glutathione peroxidase GPX4 (Homo sapiens) (UniProt P36969)
Sequence (P36969 whole entry, looked up): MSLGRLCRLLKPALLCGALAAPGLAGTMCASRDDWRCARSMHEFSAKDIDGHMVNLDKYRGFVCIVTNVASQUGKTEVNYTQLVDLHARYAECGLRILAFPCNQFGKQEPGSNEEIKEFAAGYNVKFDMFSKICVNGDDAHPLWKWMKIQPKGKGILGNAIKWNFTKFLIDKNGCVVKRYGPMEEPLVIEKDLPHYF
Experiment: Primary qHTS Assay for Inhibitors of Recombinant Selenoprotein Glutathione Peroxidase 4 (GPX4) (AID 1845192); also: % is scaled to controls: 0 for no effect and ±100 for the full control effect; nearly all actives have a fitted effect of over 65% in size
Conditions: recombinant GPX4, GR-coupled NADPH fluorescence, 15 min; series mostly up to 50 µM
Inconclusive results are not listed. Calls of active or inactive are those of the source. Calls follow the shape of the dose curve; as a rule, active = well fitted inhibition curve with a large enough effect; inconclusive = small, poorly fitted or top-dose-only effect; inactive = flat fitted curve, though single readings scatter.
Measure: activity change, negative = inhibition

See these solved cases before continuing.
{"columns": ["Compound", "Subject Of Test", "activity change, negative = inhibition"],
 "data": [
  ["COC1=CC(=O)O[C@@H](/C=C/c2ccccc2)[C@@H]1O", "Phospholipid hydroperoxide glutathione peroxidase GPX4 (Homo sapiens) (UniProt P36969)", "inactive"],
  ["C=CC1C(O[C@@H]2O[C@H](CO)[C@@H](O)[C@H](O)[C@H]2O)OC=C(C(=O)OC)C1CC(=O)O (stereo partly specified)", "Phospholipid hydroperoxide glutathione peroxidase GPX4 (Homo sapiens) (UniProt P36969)", "inactive"],
  ["CC(=O)OCCC(C)CCC1C(C)(O)CCC2C(C)(C)CCCC21C (stereo unspecified)", "Phospholipid hydroperoxide glutathione peroxidase GPX4 (Homo sapiens) (UniProt P36969)", "inactive"],
  ["CC(=O)N[C@H]1[C@H](O[C@H]2CC[C@@]3(C)C(CC[C@]4(C)C3CC=C3C5CC(C)(C)CC[C@]5(C(=O)O)[C@H](O[C@@H]5O[C@H](CO)[C@@H](O)[C@H](O)[C@H]5O)C[C@]34C)C2(C)C)O[C@H](CO[C@@H]2OC[C@H](O)[C@H](O)[C@H]2O[C@@H]2OC[C@@H](O)[C@H](O)[C@H]2O)[C@@H](O)[C@@H]1O (stereo partly specified)", "Phospholipid hydroperoxide glutathione peroxidase GPX4 (Homo sapiens) (UniProt P36969)", "inactive"],
  ["C/C=C1/[C@H](O[C@@H]2O[C@H](CO)[C@@H](O)[C@H](O)[C@H]2O)OC=C(C(=O)OC)[C@H]1CC(=O)O[C@@H]1O[C@H](CO)[C@@H](O)[C@H](O)[C@H]1O", "Phospholipid hydroperoxide glutathione peroxidase GPX4 (Homo sapiens) (UniProt P36969)", "inactive"]
]}

Moving on to the next compound.
Test system Phospholipid hydroperoxide glutathione peroxidase GPX4 (Homo sapiens) (UniProt P36969); read-out activity change, negative = inhibition; what value for Nc1ncnc2c1ncn2[C@@H]1O[C@H](COP(=O)(O)OP(=O)(O)OP(=O)(O)O)[C@@H](O)[C@H]1O ?
0.0913% [at 0.409 µM] (inactive)

Data credit: PubChem BioAssay (NCATS)
